B1: LCOR (parent)
chain: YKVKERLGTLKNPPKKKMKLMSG

- Variants of: B1
- Assay comment: protein stability index of a GFP-peptide fusion (GPS, HEK-293T) (PSI 1-6); higher = more stable;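 also: lentivirally expressed fusions sorted by FACS into six bins by GFP to DsRed ratio, PSI derived from sequencing read proportions per bin multiplied by bin number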
- Run parameters: c terminus: native
Please respond with reported protein stability index for every item in the list.
Numbers only.

Some entries whose results are on file:
* N12A | 2.54
* K15D | 2.06
* G8P | 3.05

Would you mind giving protein stability index for every variant in the list below?
1. L10V
2. L7N
3. K2C
4. G8A

Result:
1: 2; 2: 2.53; 3: 1.79; 4: 1.85

Would you mind giving protein stability index for every variant in the list below?
1. L20E
2. G8S
3. M18I

Result:
[3.99, 1.76, 2.02]

Would you mind giving protein stability index for every variant in the list below?
1. K11C
2. G23R
3. P14T

Result:
1. 2.02
2. 2.88
3. 1.63
